Test system HCT-15, GI50 listed for each of the compounds.

Below, each entry is followed by its recorded GI50 result.
O=c1[nH]c2nc3ccccc3c(=O)n2/c1=C/c1cccs1; > 100 µM
CN(C)CCCSc1nc2ccccc2[nH]1; > 100 µM
Cc1ccc(S(=O)(=O)NC(=O)C#CCOC2CCCCO2)cc1 (stereo unspecified); > 100 µM

The value of GI50 recorded for Cc1ccc(S(=O)(=O)N/N=C(/CC(=O)c2c(C)[n+]([O-])c3ccccc3[n+]2[O-])C(=O)Nc2ccccc2C)cc1 when tested on HCT-15 reads > 100 µM

The value of GI50 recorded for C[C@@]12CCCC(=O)N1[C@@H](CO)C(c1ccccc1)O2 (stereo partly specified) when tested on HCT-15 reads > 100 µM

The value of GI50 recorded for CCC1(CC)C(=O)N(C(=O)c2cc(OC)c(OC)c(OC)c2)N(C(=O)c2cc(OC)c(OC)c(OC)c2)C1=O when tested on HCT-15 reads > 50 µM

* * *

# System: CAKI-1
# assayNotes: NCI tumour cell line growth inhibition, 48 h
Active and inactive are the calls of the source. Cut-off read from the data, not from the text of the source: active = GI50 up to about 1.1 µM and inactive = higher.
GI50 values for the compounds below.

Below, each entry is followed by its recorded GI50 result.
O=C(O)c1ccc(Nc2ccnc3cc(Cl)ccc23)cc1O; > 100 µM (inactive)
C=C1[C@H](OC(=O)C(C)C)[C@@H](OC(C)=O)[C@@H](OC(C)=O)C(C)(C)[C@@H]2O[C@H]2[C@@H](C)C(=O)[C@@]2(OC(C)=O)C[C@@](C)(OC(C)=O)[C@H](OC(C)=O)[C@@H]2[C@H]1OC(C)=O; > 100 µM (inactive)
COc1cc2c3c(n(C)c(=O)c2cc1OC)-c1cc2c(cc1/C3=C\CCCCl)OCO2; 25.9 µM (inactive)
COCOc1ccc(C(=O)C(C)c2ccc(OCOC)cc2OCOC)c(O)c1 (stereo not given); 52.1 µM (inactive)
Nc1nc(NCC2(CO)CC2)cc(=O)[nH]1; > 100 µM (inactive)
NCCCc1c(-c2ccccc2)[nH]c(N)nc1=O; > 100 µM (inactive)
CC(=O)OC1(C)N=NC2(CCCCC2)O1 (stereo not given); > 100 µM (inactive)
COC(=O)Nc1nc2cc(NS(=O)(=O)c3ccc(F)cc3)ccc2[nH]1; 23.6 µM (inactive)
O=C(O)c1ccc(C(=O)O)c(C(=O)Nc2ccc3c(c2)C(=O)c2ccccc2-3)c1; > 100 µM (inactive)

Now take the following compound into account.
For record COc1ccccc1NC(=O)NS(=O)(=O)c1ccccc1 the listed GI50 is 91.6 µM (inactive)

* * *

# Test system: RXF 393
# assayNotes: NCI tumour cell line growth inhibition, 48 h
Active and inactive are the calls of the source. No stated cut-off is given here; in the data, active = GI50 up to about 1.1 µM and inactive = higher.
// allowed return values: true for active, false for inactive

CC(Nc1ccc(Cl)c(Cl)c1)c1ccncc1 (stereo unspecified); false
CCO/C=C\C12CCCC1NC(c1ccccc1)(c1ccccc1)O2 (stereo unspecified); false
COC12OCCN(C)C1=CC(=O)C1(C)N=NCC12 (stereo unspecified); false
O=C(CSc1ncccn1)N/N=C/c1ccccc1OCc1ccccc1; false
CC1=NN(c2nc(N)nc(COCc3nc(N)nc(N4N=C(C)CC4(C)C)n3)n2)C(C)(C)C1; false

What outcome does the record of this test show for C/C([O-])=C(/c1nc(-c2ccc([N+](=O)[O-])o2)no1)[n+]1cc(C)ccc1C ?
false

What outcome does the record of this test show for Cc1ccccc1-n1c(CCl)nc2ccc(Br)cc2c1=O ?
false

What outcome does the record of this test show for C#CC[C@@]12CC(=O)C[C@@H]1CCC1(C2)OCCO1.C#CC[C@]12CC(=O)CC[C@H]1CC(=O)C2 ?
false

What outcome does the record of this test show for O=P(O)(O)OP(=O)(O)O ?
false

What outcome does the record of this test show for COc1ccc(C2=C(N)c3c(OC)cccc3C2=O)cc1 ?
false

What outcome does the record of this test show for COc1cccc2c1C(=O)c1c(O)c3c(c(O)c1C2=O)C[C@@](O)(C(=O)CO)CC3OC1CC(O)C(O)C(C)O1 (stereo partly specified) ?
true

What outcome does the record of this test show for Oc1c2cc(Br)cc1CCc1cc(Br)cc(c1O)CC2 ?
false

* * *

# Test system: IGROV-1
# assayNotes: NCI tumour cell line growth inhibition, 48 h
Active and inactive are the calls of the source. No stated cut-off is given here; in the data, active = GI50 up to about 1.1 µM and inactive = higher.
GI50 values for the compounds below.

Below, each entry is followed by its recorded GI50 result.
CC(C)(C)NN=C1C(C)(C)C(=NNC(C)(C)C)C1(C)C; > 100 µM (inactive)
CCOC(=O)CC1Nc2ccccc2C12CCc1c([nH]c3ccccc13)C2C(=O)OCC (centres undefined); 6.92 µM (inactive)
OC(c1cccnc1)C(F)(F)c1nc2ccccc2o1 (centres undefined); > 100 µM (inactive)
O=C1C2Cc3ccccc3CN2C(=O)N1CN1CCCCC1 (centres undefined); > 100 µM (inactive)
COc1ccc(-c2cc(=O)c3c(OC)c(OC)c(OC)cc3o2)cc1; 37.9 µM (inactive)

For record COc1ccc(C2SCC(=O)N2c2ccc(-n3c(-c4ccccc4)nc4ccccc4c3=O)cc2)cc1 (centres undefined) the listed GI50 is > 100 µM (inactive)

* * *

# System: U-251
# assayNotes: NCI tumour cell line growth inhibition, 48 h
The source made the active and inactive calls. No stated cut-off is given here; in the data, active = GI50 up to about 1.1 µM and inactive = higher.
quantity: GI50

The value of GI50 recorded for COc1cc2c(oc(=O)c3c4occc4cc(OC)c23)c2cccc(O)c12 when tested on U-251 reads > 100 µM (inactive)

The value of GI50 recorded for CC(C)(C)NCC(O)COc1cccc2[nH]c(C#N)cc12 (configuration not stated) when tested on U-251 reads > 100 µM (inactive)

* * *

# System: SR
# assayNotes: NCI tumour cell line growth inhibition, 48 h
The source made the active and inactive calls. Cut-off read from the data, not from the text of the source: active = GI50 up to about 1.1 µM and inactive = higher.
// allowed return values: yes (active), no (inactive)

CCOC(=O)c1nc2ccccc2nc1Nc1ccc(OC)c(OC)c1; no

What outcome does the record of this test show for Cc1ccnc2nc(-c3cccc4ccccc34)cc(O)c12 ?
yes

What outcome does the record of this test show for N#CC1=C(S)N(C2OC(CO)C(O)C(O)C2O)C(c2ccccc2)=CC1c1cccs1 (stereo not given) ?
no

What outcome does the record of this test show for NCCCc1c(-c2ccccc2)[nH]c(N)nc1=O ?
no

What outcome does the record of this test show for Cc1nc2c(=O)n(C)c(=O)nc-2n(CCO)c1C ?
no

* * *

# System: ACHN
# assayNotes: NCI tumour cell line growth inhibition, 48 h
The source made the active and inactive calls. Rule as the data show it: active = GI50 up to about 1.1 µM and inactive = higher.
// allowed return values: T for active, F for inactive

The following compounds have reported results that may help.
C=C1[C@H](OC(=O)C(C)C)[C@@H](OC(C)=O)[C@@H](OC(C)=O)C(C)(C)[C@@H]2O[C@H]2[C@@H](C)C(=O)[C@@]2(OC(C)=O)C[C@@](C)(OC(C)=O)[C@H](OC(C)=O)[C@@H]2[C@H]1OC(C)=O; F
COc1ccc2c(c1OC)C1=C(C2=O)c2cc3c(cc2CCN1)OCO3; F
CNc1c2cccc(C)c2nc2c(C(=O)NCCN(C)C)cccc12; T
CC(O)/C=C/C1OC(=O)CC1Nc1ccc(C=O)cc1 (centres undefined); F
CCCCCCCc1ccc(-c2nnc(/N=N/c3ccc(OCCCCC)cc3)s2)s1; F
CN(Cc1cnc2nc(N)nc(N)c2n1)c1ccc(C(=O)NCCCC(=O)O)cc1; F

What outcome does the record of this test show for O=C(CCc1ccc(O)c(O)c1)NCCc1cc(O)c(O)c(O)c1 ?
F

What outcome does the record of this test show for COc1ccc(-c2cc3c(c4cc(OC)ccc24)C(=O)OC3=O)cc1 ?
F

What outcome does the record of this test show for O=C1C(c2c(O)[nH]c3ccc(S(=O)(=O)O)cc23)=Nc2ccccc21 ?
F

What outcome does the record of this test show for O=C1N(c2ccccc2)C2(c3ccccc3)CC3CCCC13S2 (centres undefined) ?
F

What outcome does the record of this test show for Cc1cc2c(c(C)c1O)C(C)(C)CN2C(=O)C(C)(C)C ?
F

What outcome does the record of this test show for O=C(c1ccccc1)C(c1ccccc1)C1(O)C(=O)Nc2c(Cl)ccc(Cl)c21 (centres undefined) ?
F

What outcome does the record of this test show for CCO/C=C1\N=C(C(Cl)c2ccccc2)OC1=O (centres undefined) ?
F

What outcome does the record of this test show for CCOC(=O)c1nc2ccccc2nc1Nc1ccc(OC)c(OC)c1 ?
F

* * *

# Tested on: HL-60
# assayNotes: NCI tumour cell line growth inhibition, 48 h
Calls of active or inactive are those of the source. No stated cut-off is given here; in the data, active = GI50 up to about 1.1 µM and inactive = higher. Peptide text beside a SMILES is read from it.
GI50 values for the molecules below.

Below, each entry is followed by its recorded GI50 result.
COC1/C=C\C=C(/C)C(=O)NC2=CC(=O)C(O)=C(CC(C)CC(OC)C(O)C(C)/C=C(\C)C1OC(N)=O)C2=O (stereo not given); 0.169 µM (active)
CC1(C)c2ccccc2C(=O)C12CCC(=O)CC2; > 100 µM (inactive)
Cc1c(O)c(OC2OC(CO)C(O)C(O)C2O)cc2c1C=C[C@@H]1[C@@]2(C)C(=O)C[C@]2(C)[C@@H]([C@@](C)(O)C(O)/C=C/C(C)(C)O)[C@H](O)C[C@@]12C (stereo not given in full); > 100 µM (inactive)

For record COc1ccc(C2SC(=N)Nc3c2c(C)nn3C(=O)c2ccc(Cl)cc2)cc1 (stereo not given) the listed GI50 is > 10 µM (inactive)

For record CC(=O)NC(CS)C(=O)NC(CO)C(=O)NC(CO)C(=O)NC(Cc1c[nH]c2ccccc12)C(=O)N1CCCC1C(=O)NC(CO)C(=O)NC(Cc1c[nH]c2ccccc12)C(=O)NC(Cc1c[nH]cn1)C(=O)NC(CO)C(=O)NC(Cc1c[nH]c2ccccc12)C(=O)NCC(=O)NCC(=O)NC(C)C(=O)NC(CCC(N)=O)C(=O)NC(CCCCN)C(=O)NC(C)C(=O)NC(CCCNC(=N)N)C(=O)NC(CCCCN)C(N)=O (stereo not given) (Ac-CSSWPSWHSWGGAQKARK-NH2; configuration not given here) the listed GI50 is 12.4 µM (inactive)

For record CCOC(=O)C1S/C(=N\c2ccc(Cl)c(Cl)c2)N=C1C (stereo not given) the listed GI50 is 20.4 µM (inactive)
